- System: S. aureus
- Measurement Protocol: MIC, CLSI protocol, planktonic ESKAPE pathogens
- Type: cell-based, Staphylococcus aureus
- Experimental Setup: N=4
Provide the recorded minimum inhibitory concentration (MIC) for the entries that follow.
Answers are plain numbers.

[[record]]
compound = "CC(=O)NC[C@H]1CN(c2ccc(N3CCOCC3)c(F)c2)C(=O)O1 [LZD, linezolid]"
observed_result = 4


# ---- query compound ----
Query block: Lab note: need minimum inhibitory concentration (MIC) with S. aureus for entry CN[C@H](CC(C)C)C(=O)N[C@H]1C(=O)N[C@@H](CC(N)=O)C(=O)N[C@H]2C(=O)N[C@H]3C(=O)N[C@H](C(=O)N[C@H](C(=O)O)c4cc(O)cc(O)c4-c4cc3ccc4O)[C@H](O)c3ccc(c(Cl)c3)Oc3cc2cc(c3O[C@@H]2O[C@H](CO)[C@@H](O)[C@H](O)[C@H]2O[C@H]2C[C@](C)(N)[C@H](O)[C@H](C)O2)Oc2ccc(cc2Cl)[C@H]1O [VAN, vancomycin] , please look it up.
Result block: 1
